Each recorded value in this set is attributed to ChEMBL document CHEMBL4382230.

Test system: NIH3T3
Assay: Cytotoxicity against mouse NIH/3T3 cells harboring MDR G185 after 48 hrs by MTT assay
Type: functional, cell-based
Conditions: NIH3T3, 48 h
pIC50: −log10 of the molar value.
Assign yes (1) to entries whose pIC50 meets or exceeds 6; assign no (0) to the rest.

Could you please find out whether CC(=O)OC1=C(c2cccc3cccnc23)Oc2cc3ccccc3cc2-n2cccc21 has pIC50 that meets 6 or exceeds it?
yes (1)

Then this compound: CC(=O)OC1=C(c2cccc3ccccc23)Oc2cc3ccccc3cc2-n2cccc21
yes (1)

Same question, CC(=O)OC1=C(c2cccc3ncccc23)Oc2cc3ccccc3cc2-n2cccc21 this time
yes (1)

Also, CC(=O)OC1=C(c2ccc3c(c2)OCO3)Oc2cc3ccccc3cc2-n2cccc21 please.
no (0)

Subsequent entry: CC[C@]1(O)C[C@@H]2CN(CCc3c([nH]c4ccccc34)[C@@](C(=O)OC)(c3cc4c(cc3OC)N(C)[C@H]3[C@@](O)(C(=O)OC)[C@H](OC(C)=O)[C@]5(CC)C=CCN6CC[C@]43[C@@H]65)C2)C1
yes (1)

Next up: CC(=O)O[C@H]1C(=O)[C@@]2(C)[C@H]([C@H](OC(=O)c3ccccc3)[C@]3(O)C[C@H](OC(=O)[C@H](O)[C@@H](NC(=O)c4ccccc4)c4ccccc4)C(C)=C1C3(C)C)[C@]1(OC(C)=O)CO[C@@H]1C[C@@H]2O
no (0)

Can you check CCN(CC)CCCC(C)NC(=O)OC1=C(c2cccc3cccnc23)Oc2cc3ccccc3cc2-n2cccc21 (centres undefined) next?
no (0)

---

Experiment: Ratio of IC50 for human A2780AD cells to IC50 for human A2780 cells
Assay type: functional
Each entry below carries its recorded Ratio IC50.

# annotated cases, reported Ratio IC50 shown
// query Ratio IC50 value for entry CC(=O)OC1=C(c2cccc3cccnc23)Oc2cc3ccccc3cc2-n2cccc21
1.03

Would you mind doing CC(=O)OC1=C(c2cccc3cnccc23)Oc2cc3ccccc3cc2-n2cccc21 as well?
2.69

Now take the following molecule into account.
// query Ratio IC50 value for entry CC(=O)OC1=C(c2ccc3c(c2)OCO3)Oc2cc3ccccc3cc2-n2cccc21
3.46

---

Experiment: Apparent solubility of compound in sodium phosphate buffer at 15 uM after 20 mins
Assay type: physicochemical
Please mark label 1 if the recorded solubility at 20 min, 15 µM is equal to or greater than 0.4 µM, and label 0 if it falls below.

Entry CC(=O)OC1=C(c2cccc3cnccc23)Oc2cc3ccccc3cc2-n2cccc21 : is its solubility at 20 min, 15 µM no less than 0.4 µM?
label 0

Follow-up entry: CC(=O)OC1=C(c2cccc3ccccc23)Oc2cc3ccccc3cc2-n2cccc21
label 1

Consider next the compound CC(=O)OC1=C(c2cccc3cccnc23)Oc2cc3ccccc3cc2-n2cccc21 in the same way.
label 0

Also, CC(=O)OC1=C(c2ccc3c(c2)OCO3)Oc2cc3ccccc3cc2-n2cccc21 please.
label 0

What do you get for CC(=O)OC1=C(c2cccc3ncccc23)Oc2cc3ccccc3cc2-n2cccc21 ?
label 0

# evaluate next
Could you tell me if the measured solubility at 20 min, 15 µM of CCN(CC)CCCC(C)NC(=O)OC1=C(c2cccc3cccnc23)Oc2cc3ccccc3cc2-n2cccc21 (stereo unspecified) reaches 0.4 µM or more?
label 1

---

Experiment: Chemical stability of compound in pH 3 aqueous solution assessed as compound remaining after 24 hrs by HPLC analysis
Assay type: physicochemical
Conditions: read-out: Stability
Quantity: remaining at 24 h

Could you share which remaining at 24 h value was measured for CC(=O)OC1=C(c2cccc3ncccc23)Oc2cc3ccccc3cc2-n2cccc21 ?
65%

---

Assay: Solubility of compound in pH 7.4 aqueous solution after 12 hrs by HPLC analysis
Type: physicochemical
Quantity: solubility at 12 h

Worked cases, answers included:
What value of measured solubility at 12 h is listed for COC(=O)Nc1nc2ccc(C(=O)c3cccs3)cc2[nH]1 ?
< 1000 µg/mL

And CC(=O)OC1=C(c2cccc3ccccc23)Oc2cc3ccccc3cc2-n2cccc21 ?
26 µM

Turning to the following compound.
Need solubility at 12 h of CC(=O)OC1=C(c2cccc3ncccc23)Oc2cc3ccccc3cc2-n2cccc21 , thanks.
458 µM

---

System: A2780
Experiment: Cytotoxicity against human A2780 cells after 48 hrs by MTT assay
Assay type: functional, cell-based
Details: A2780, 48 h
pIC50: −log10 of the molar value.
Param threshold (7) applies to pIC50; output true when value >= threshold, false when value < threshold.

Example entries begin here.
Reported pIC50 reaches at least 7 for CC(=O)OC1=C(c2cccc3ccccc23)Oc2cc3ccccc3cc2-n2cccc21 ?
false

Next up: CC(=O)OC1=C(c2ccc3c(c2)OCO3)Oc2cc3ccccc3cc2-n2cccc21
false

Next molecule up: CC(=O)OC1=C(c2cccc3cnccc23)Oc2cc3ccccc3cc2-n2cccc21
false

Next:
Form field: pIC50 at least 7? Entry: COc1cc2c(c(OC)c1OC)-c1ccc(OC)c(=O)cc1[C@@H](NC(C)=O)CC2
true

Lookup CC[C@]1(O)C[C@@H]2CN(CCc3c([nH]c4ccccc34)[C@@](C(=O)OC)(c3cc4c(cc3OC)N(C)[C@H]3[C@@](O)(C(=O)OC)[C@H](OC(C)=O)[C@]5(CC)C=CCN6CC[C@]43[C@@H]65)C2)C1
true

And then CCN(CC)CCCC(C)NC(=O)OC1=C(c2cccc3cccnc23)Oc2cc3ccccc3cc2-n2cccc21 (centres undefined) , what is it?
false

Follow-up item: CC(=O)O[C@H]1C(=O)[C@@]2(C)[C@H]([C@H](OC(=O)c3ccccc3)[C@]3(O)C[C@H](OC(=O)[C@H](O)[C@@H](NC(=O)c4ccccc4)c4ccccc4)C(C)=C1C3(C)C)[C@]1(OC(C)=O)CO[C@@H]1C[C@@H]2O
true

---

Reported values of log10 of Kb for individual entries
Molecular target: Tubulin (Homo sapiens) (UniProt P68371+Q9H4B7+P0DPH7+P68366+Q13509+Q71U36+P04350+Q3ZCM7+P07437+P68363+Q9BQE3+Q6PEY2+Q13885+Q9BVA1+Q9BUF5)
Assay: Binding affinity to tubulin (unknown origin) by analytical ultracentrifugation
Hey, these are logged values: log10 of Kb, ×10⁷ /M being the unit before logging.

Give its log10 of Kb value. Item: CC(=O)OC1=C(c2cccc3ncccc23)Oc2cc3ccccc3cc2-n2cccc21
0.85

Now consider CC(=O)OC1=C(c2cccc3ccccc23)Oc2cc3ccccc3cc2-n2cccc21 and answer again.
0.64

Another: CC(=O)OC1=C(c2cccc3cnccc23)Oc2cc3ccccc3cc2-n2cccc21
1.20

---
What value of log10 of Kb has been recorded for this entry: CCN(CC)CCCC(C)NC(=O)OC1=C(c2cccc3cccnc23)Oc2cc3ccccc3cc2-n2cccc21 (stereo unspecified)
2.06

And what about the molecule CC(=O)OC1=C(c2ccc3c(c2)OCO3)Oc2cc3ccccc3cc2-n2cccc21 ?
0.30

One more molecule: CC(=O)OC1=C(c2cccc3cccnc23)Oc2cc3ccccc3cc2-n2cccc21
2.06

---

Test system: NIH3T3
Experiment: Cytotoxicity against mouse NIH/3T3 cells after 48 hrs by MTT assay
Format: cell-based
Conditions: NIH3T3, 48 h
This listing pairs molecules with measured pIC50.
Lab note — pIC50 values are minus log10 of concentrations in M.

// pIC50 lookup, key: CC[C@]1(O)C[C@@H]2CN(CCc3c([nH]c4ccccc34)[C@@](C(=O)OC)(c3cc4c(cc3OC)N(C)[C@H]3[C@@](O)(C(=O)OC)[C@H](OC(C)=O)[C@]5(CC)C=CCN6CC[C@]43[C@@H]65)C2)C1 [VINBLASTINE]
9.00

Now try CC(=O)OC1=C(c2cccc3cccnc23)Oc2cc3ccccc3cc2-n2cccc21 .
7.47

Cool, now CC(=O)OC1=C(c2cccc3ccccc23)Oc2cc3ccccc3cc2-n2cccc21
6.90

Also CCN(CC)CCCC(C)NC(=O)OC1=C(c2cccc3cccnc23)Oc2cc3ccccc3cc2-n2cccc21 (centres undefined) ?
5.64
